Values compiled from patent US20240059658A1.

system_under_test: MDM2 (Homo sapiens)
Construct: ubiquitination of endogenous MDM2 in EU-1 cells; endogenous in cells; host or cells: EU-1 (ALL) cells
Sequence (Q00987 whole entry): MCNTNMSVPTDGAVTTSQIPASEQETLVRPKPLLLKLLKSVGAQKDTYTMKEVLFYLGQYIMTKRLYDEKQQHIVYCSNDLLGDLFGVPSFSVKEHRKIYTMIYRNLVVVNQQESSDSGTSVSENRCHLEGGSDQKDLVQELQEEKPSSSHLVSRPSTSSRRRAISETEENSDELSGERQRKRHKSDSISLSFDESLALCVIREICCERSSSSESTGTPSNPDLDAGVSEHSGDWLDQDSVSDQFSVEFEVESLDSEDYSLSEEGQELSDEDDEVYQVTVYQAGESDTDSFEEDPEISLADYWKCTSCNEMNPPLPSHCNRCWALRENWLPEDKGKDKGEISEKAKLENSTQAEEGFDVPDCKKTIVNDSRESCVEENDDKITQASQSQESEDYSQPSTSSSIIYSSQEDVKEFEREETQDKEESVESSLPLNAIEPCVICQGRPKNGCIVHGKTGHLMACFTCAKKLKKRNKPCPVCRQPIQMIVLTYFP
test: MDM2 reduction / expression (Western blot)
Format: cell-based
condition_notes: words or +/− grades, key not given
property_measured: MDM2 reduction

- CC(=O)c1ccc(C2CC(=O)c3cc(S(=O)(=O)Nc4ccc(C)c(C)c4)ccc3N2)cc1 (stereo not drawn): inhibition
- Cc1ccc(NS(=O)(=O)c2ccc3c(c2)C2OCC[C@H]2[C@H](C2CCCCC2)N3)cc1C (stereo partly drawn): inhibition
- Cc1ccc(NS(=O)(=O)c2ccc3c(c2)C(=O)C[C@@H](c2ccc(C(=O)C(C)C)cc2)N3)cc1C (stereo in doubt): inhibition
